# PROTOCOL: solubility of drug substance in pH 5.0 buffer solution
# Format: physicochemical
# CONDITIONS_USED: aqueous buffer

>  <MOLECULE>
CCOc1cc(CC(=O)N[C@@H](CC(C)C)c2ccccc2N2CCCCC2)ccc1C(=O)O [repaglinide]

>  <solubility (µg/mL)>
9

$$$$
